These data points were gathered from paper PMC9074662.

Molecular target: hCE1 (Homo sapiens, UniProt P23141)
Construct: tissue Bioreclamation IVT lot no; X008067; host or cells: pooled human liver microsomes, 50 donors
Sequence (P23141 18-567): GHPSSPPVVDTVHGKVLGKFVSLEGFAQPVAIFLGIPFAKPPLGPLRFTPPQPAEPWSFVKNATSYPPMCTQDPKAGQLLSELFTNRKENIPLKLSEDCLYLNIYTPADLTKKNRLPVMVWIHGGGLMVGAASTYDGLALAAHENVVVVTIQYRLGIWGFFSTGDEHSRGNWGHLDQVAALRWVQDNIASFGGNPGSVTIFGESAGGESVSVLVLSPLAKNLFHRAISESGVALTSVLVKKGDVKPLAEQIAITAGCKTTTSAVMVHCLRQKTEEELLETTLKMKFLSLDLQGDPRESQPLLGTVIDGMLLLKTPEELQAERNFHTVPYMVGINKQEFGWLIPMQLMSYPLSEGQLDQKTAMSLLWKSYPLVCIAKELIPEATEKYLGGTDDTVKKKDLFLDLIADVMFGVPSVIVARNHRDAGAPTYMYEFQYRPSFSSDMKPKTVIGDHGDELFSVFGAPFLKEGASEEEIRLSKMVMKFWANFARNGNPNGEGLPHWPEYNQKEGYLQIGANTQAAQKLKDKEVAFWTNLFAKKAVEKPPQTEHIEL
Test: hCE1 inhibition assay (DME hydrolysis in human liver microsomes)
Format: biochemical
Conditions: DME probe substrate (3 μM), HLM, PBS pH 6.8, 37 °C
measure name: IC50 (µM)

1. COc1ccc2cc(-c3ccc4c(c3)OCO4)n(C(CO)OC)c(=O)c2c1OC (stereo not shown) [Compound 23b]
2. COc1ccc(-c2cc(=O)c3c(O)c(OC)c(O)c(OC)c3o2)cc1 [Nevadensin, reference compound]
Task: // pick larger IC50 from pair: 1 vs 2 Refer to your chosen entry by its label in the reply.
Output: 1
(1: 36.8 µM, 2: 2.64 µM)

###

Molecular target: hCE1 (Homo sapiens, UniProt P23141)
Construct: tissue Bioreclamation IVT lot no; X008067; host or cells: pooled human liver microsomes, 50 donors
Test: hCE1 inhibition assay (DME hydrolysis in human liver microsomes)
Assay type: biochemical
Conditions: DME probe substrate (3 μM), HLM, PBS pH 6.8, 37 °C
measure name: IC50

> print(dat)
                                   compound  experimental.value
1  COc1ccc(-c2cc3ccc(OC)c(OC)c3c3[n+]2C(OC)CO3)cc1OCc1ccc2cccnc2c1 (stereo not shown) [Compound 23j]            > 100 µM
2  COc1ccc(-c2cc3ccc(OC)c(OC)c3c3[n+]2C(OC)CO3)cc1OCc1ccc(C)cc1 (stereo not shown) [Compound 23k]            > 100 µM
3  COc1ccc2cc(-c3ccc4c(c3)OCO4)[n+]3c(c2c1OC)OCC3OC (stereo not shown) [Compound 23a]             4.04 µM

Next item in the queue.
Task: State its IC50 on hCE1 (Homo sapiens, UniProt P23141): COc1ccc(COc2cc(-c3cc4ccc(OC)c(OC)c4c4[n+]3C(OC)CO4)ccc2OC)cc1 (stereo not shown) [Compound 23d]
Output: > 100 µM
